Could you please report measured apparent KD of MS2 coat protein for the items listed next?
system: MS2 coat protein; assay: apparent KD of MS2 coat protein; designed switch direction (-1 OFF switch, 1 ON switch): -1; higher = weaker reporter binding; settings: input ligand: FMN 200 uM
One number for each entry, in nM.

>  <Sequence code>
GCACGAAGUGUAGGAUAUCUGUGCGAUUAGCUCAGAGAAGGACACAUGAGGAUCACCCAUGUUUUCCGCGGAAGCAAUACGUGC [Eli exng1 - 058] (Eterna round: R96, puzzle: Exclusion NG 1)

>  <apparent KD of MS2 coat protein, nM>
26.5

$$$$
>  <Sequence code>
GGUCAGAUGGUAGGAUAUUUAUAUCGAGUGACCCUUUCAUAACAUGAGGAUCACCCAUGUCGGUGGGAGAAGGGCCGUACGGCG [salish99_ExNG02_R04_013] (Eterna round: R96, puzzle: Exclusion NG 2)

>  <apparent KD of MS2 coat protein, nM>
37.7

$$$$
>  <Sequence code>
CCCGUGUAAGGAUAUCGUUCACUUGGCGAAAGUCGAGUGGACGAGAAGGUACAUGAGGAUCACCCAUGUACGGG [-36.1, -35.7 kcal, A 27%] (Eterna round: R97, puzzle: Exclusion 4)

>  <apparent KD of MS2 coat protein, nM>
438

$$$$
>  <Sequence code>
ACUUACUGAGGAUAUACAUAGAUAAACAUGAGGAUCACCCAUGUUCCUAUAAGUAUAUAUGUAGAAGGCAGAAGAA [JR_Ex5_Sub074] (Eterna round: R97, puzzle: Exclusion 5)

>  <apparent KD of MS2 coat protein, nM>
24.2

$$$$
>  <Sequence code>
UUUCUUCAUAUCACAUGAGGAUCACCCAUGUUAUUCAUCGCGUAGGAUAUCGAGAAUUUUAAAUACGAGAAGGACGUAUUGAUA [JR_ExcNG3_Sub072] (Eterna round: R96, puzzle: Exclusion NG 3)

>  <apparent KD of MS2 coat protein, nM>
43.4

$$$$
>  <Sequence code>
GUCAGACGAGGAUAUGAUCAAUAAUACAUGAGGAUCACCCAUGUAAUACUGAUCCAUGGAUCAGAAGGCGUCUGAC [E5/5-A4] (Eterna round: R97, puzzle: Exclusion 5)

>  <apparent KD of MS2 coat protein, nM>
23.4

$$$$
>  <Sequence code>
GUAGAGUCAGGAUAUACGAGAUCGAAAGAUCGGCGAUCCAAACAUGAGGAUCACCCAUGUAGAAGGGACUCUAC [Eli x2 4.004] (Eterna round: R97, puzzle: Exclusion 2)

>  <apparent KD of MS2 coat protein, nM>
579

$$$$
>  <Sequence code>
GUCGCGUGGGUGUGGGAGGACAUGAGGAUCACCCAUGUGACUACCAAGCUUUUUGCUCCUCUUAGGUCCAUGGGAAG [Random] (Eterna round: R97, puzzle: Sensor, turn-off variant 1)

>  <apparent KD of MS2 coat protein, nM>
67

$$$$

Now consider a different sequence.
Ask | // Input: UUUUUAUAUGAAGGAUAUACUUAACAUGAGGAUCACCCAUGUGGUGUUGUGAGUGAGUGAGUUUAGUAGAAGGUCAAUUCUUUG [JMF's solution 84] (Eterna round: R96, puzzle: Exclusion NG 2) . Output its apparent KD of MS2 coat protein only.
Reply | 397
